Test system: Pseudomonas aeruginosa
test_details: Potentiation of ceftazidime-induced antibacterial activity against carbapenem-resistant Pseudomonas aeruginosa 262-101856 clinical isolate assessed as ceftazidime MIC at 8 uM by checkerboard assay (reference value: 16 ug/ml)
Assay type: functional
observation_type: MIC (µg/mL)
One number for each entry, in µg/mL.

INSERT INTO measurements (smiles_entry, unit_of_measurement, value_reported) VALUES
  ('Cl.Cl.Cl.Cl.Cl.Cl.NC[C@H]1O[C@H](O[C@H]2[C@H](OCCCCCCCCCCCCN3CCN(c4cc5c(cc4F)c(=O)c(C(=O)O)cn5C4CC4)CC3)[C@@H](O[C@H]3O[C@H](CO)[C@@H](O)[C@H](N)[C@H]3O)[C@H](N)C[C@@H]2N)[C@H](N)C[C@@H]1O', 'µg/mL', 4),
  ('N=C(N)NC[C@H]1O[C@H](O[C@H]2[C@H](OCCCCCCCCCCCCN3CCN(c4cc5c(cc4F)c(=O)c(C(=O)O)cn5C4CC4)CC3)[C@@H](O[C@H]3O[C@H](CO)[C@@H](O)[C@H](NC(=N)N)[C@H]3O)[C@H](NC(=N)N)C[C@@H]2NC(=N)N)[C@H](NC(=N)N)C[C@@H]1O.O=C(O)C(F)(F)F.O=C(O)C(F)(F)F.O=C(O)C(F)(F)F.O=C(O)C(F)(F)F.O=C(O)C(F)(F)F.O=C(O)C(F)(F)F', 'µg/mL', 16);

Now look at this one.
Give its MIC value. Item: NC[C@H]1O[C@H](O[C@H]2[C@H](OCCCCc3cn(CCCCO[C@@H]4[C@@H](O)[C@H](N)C[C@H](N)[C@H]4O[C@H]4O[C@H](CN)[C@@H](O)C[C@H]4N)nn3)[C@@H](O)[C@H](N)C[C@@H]2N)[C@H](N)C[C@@H]1O.O=C(O)C(F)(F)F.O=C(O)C(F)(F)F.O=C(O)C(F)(F)F.O=C(O)C(F)(F)F.O=C(O)C(F)(F)F.O=C(O)C(F)(F)F.O=C(O)C(F)(F)F.O=C(O)C(F)(F)F 16

Cited source for all entries: ChEMBL document CHEMBL4665836
